# assayed target: recombinant human AChE (Homo sapiens)
# Construct: purchased Sigma-Aldrich, Milan, Italy
# Sequence (P22303 32-614): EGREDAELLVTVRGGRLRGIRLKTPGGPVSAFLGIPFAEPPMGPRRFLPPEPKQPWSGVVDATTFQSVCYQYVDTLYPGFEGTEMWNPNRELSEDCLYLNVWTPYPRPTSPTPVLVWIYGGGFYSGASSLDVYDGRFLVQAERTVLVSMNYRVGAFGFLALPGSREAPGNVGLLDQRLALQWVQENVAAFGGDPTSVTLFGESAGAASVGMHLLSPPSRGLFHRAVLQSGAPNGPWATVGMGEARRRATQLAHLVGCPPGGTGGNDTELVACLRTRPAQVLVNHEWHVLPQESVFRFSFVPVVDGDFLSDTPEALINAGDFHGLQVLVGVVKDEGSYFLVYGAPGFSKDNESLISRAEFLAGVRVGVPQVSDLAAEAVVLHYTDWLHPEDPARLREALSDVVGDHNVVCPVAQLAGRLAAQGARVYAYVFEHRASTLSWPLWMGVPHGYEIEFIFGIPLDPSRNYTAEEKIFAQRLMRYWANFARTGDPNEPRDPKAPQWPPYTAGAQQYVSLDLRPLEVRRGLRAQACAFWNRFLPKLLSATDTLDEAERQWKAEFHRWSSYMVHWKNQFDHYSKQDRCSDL
# Type: biochemical
# experimental conditions: recombinant human AChE; mean ± SEM; read-out: hAChE IC50
We label by threshold. Values of IC50 strictly beneath 3 nM are MET. Values of 3 nM and up are NOT MET.

Task: Consider CC1=C[C@H]2Cc3nc4cc(Cl)ccc4c(NCCCCC(=O)N4CCC(NC(=O)Nc5ccc(OC(F)(F)F)cc5)CC4)c3[C@@H](C1)C2 [(+)-15] . Does its IC50 lie strictly below 3 nM?
Output: NOT MET

Task: Is the reported IC50 for O=C(Nc1ccc(OC(F)(F)F)cc1)NC1CCN(C(=O)CCCCNc2c3c(nc4cc(Cl)ccc24)CCCC3)CC1 [12c] strictly below 3 nM?
Output: NOT MET

Task: Consider the compound O=C(Nc1ccc(OC(F)(F)F)cc1)NC1CCN(C(=O)CCCNc2c3c(nc4cc(Cl)ccc24)CCCC3)CC1 [12b] . Is its IC50 strictly less than 3 nM?
Output: MET

Task: Strictly below 3 nM: is that where IC50 of CC1=C[C@@H]2Cc3nc4cc(Cl)ccc4c(NCCCCC(=O)N4CCC(NC(=O)Nc5ccc(OC(F)(F)F)cc5)CC4)c3[C@H](C1)C2 [(−)-15] sits?
Output: MET

Task: For this compound, is IC50 lower than 3 nM? O=C(Nc1ccc(OC(F)(F)F)cc1)NC1CCN(C(=O)CCNc2c3c(nc4cc(Cl)ccc24)CCCC3)CC1 [12a]
Output: NOT MET

====

# protocol text: PAMPA-BBB assay for brain permeability
# experimental conditions: pig, PAMPA
endpoint label: Papp
# output: numeric value plus its unit

Task: Request the reported Papp associated with O=C(Nc1ccc(OC(F)(F)F)cc1)NC1CCN(C(=O)CCNc2c3c(nc4cc(Cl)ccc24)CCCC3)CC1 [12a]
Output: 92 nm/s

Task: Given CC1=C[C@@H]2Cc3nc4cc(Cl)ccc4c(NCCCCC(=O)N4CCC(NC(=O)Nc5ccc(OC(F)(F)F)cc5)CC4)c3[C@H](C1)C2 [(−)-15] , state its recorded Papp.
Output: 99 nm/s

Task: Query (compound): O=C(Nc1ccc(OC(F)(F)F)cc1)NC1CCN(C(=O)CCCCNc2c3c(nc4cc(Cl)ccc24)CCCC3)CC1 [12c] ; field requested: Papp
Output: 84 nm/s

Task: So what does the record say about Papp for CN1C(C(=O)Nc2ccccn2)=C(O)c2ccccc2S1(=O)=O [Piroxicam, reference compound] ?
Output: 23 nm/s

Task: Need Papp of O=C(Nc1ccc(OC(F)(F)F)cc1)NC1CCN(C(=O)CCCNc2c3c(nc4cc(Cl)ccc24)CCCC3)CC1 [12b] , thanks.
Output: 91 nm/s

====

Provide the reported remaining at 1 h, 0.05 µM of each item.
# protocol text: Microsomal stability, rat liver microsomes
# Type: in vitro ADME
# experimental conditions: rat, liver microsomes (pooled), pH 7.4; after 1 h of incubation at 37 °C; read-out: % remaining compound, rat microsomes
Provide the reading as a plain figure in %.

Task: Please look up its remaining at 1 h, 0.05 µM: O=C(Nc1ccc(OC(F)(F)F)cc1)NC1CCN(C(=O)CCCNc2c3c(nc4cc(Cl)ccc24)CCCC3)CC1 [12b]
Output: 2

Task: Field request: remaining at 1 h, 0.05 µM | item: O=C(Nc1ccc(OC(F)(F)F)cc1)NC1CCN(C(=O)CCNc2c3c(nc4cc(Cl)ccc24)CCCC3)CC1 [12a]
Output: 4

Task: Request the reported remaining at 1 h, 0.05 µM associated with CC1=C[C@@H]2Cc3nc4cc(Cl)ccc4c(NCCCCC(=O)N4CCC(NC(=O)Nc5ccc(OC(F)(F)F)cc5)CC4)c3[C@H](C1)C2 [(−)-15]
Output: 4

Task: Recorded remaining at 1 h, 0.05 µM of O=C(Nc1ccc(OC(F)(F)F)cc1)NC1CCN(C(=O)CCCCNc2c3c(nc4cc(Cl)ccc24)CCCC3)CC1 [12c] , please.
Output: 21
